tgt: Bile acid receptor (Homo sapiens)
protocol.text: ATG_IR1_CIS: Attagene CIS-FACTORIAL HepG2 Assay for human Nuclear Receptor Subfamily 1 Group H Member 4 (NR1H4), IR1 submotif (AID 2282946)
condition.details: IR1 reporter transcription, actives raise or lower the signal
Activity calls are given as the source filed them. Rule for the calls: active = hit-call score of the fitted dose curve at least 0.9, where 1 is the maximum; inactive = score below 0.9.
metric.name: AC50

1. CCCCOP(=O)(O)OCCCC
inactive
2. CC(=O)c1cc2c(cc1C)C(C)(C)C(C)CC2(C)C (stereo not given)
179 µM (active)
3. CCOP(=O)(OCC)Oc1ccc([N+](=O)[O-])cc1
inactive
4. O=c1c2ccccc2c(=O)c2c1cc(Cl)c1[nH]c3c([nH]c12)c(Cl)cc1c(=O)c2ccccc2c(=O)c13
inactive

# next compound below
Prompt: Can you look up the measured AC50 of `SCc1ccco1` for me?
Response: inactive

---

tgt: Nuclear receptor subfamily 1 group I member 2 (Homo sapiens) (UniProt O75469)
Sequence (O75469 whole entry, looked up): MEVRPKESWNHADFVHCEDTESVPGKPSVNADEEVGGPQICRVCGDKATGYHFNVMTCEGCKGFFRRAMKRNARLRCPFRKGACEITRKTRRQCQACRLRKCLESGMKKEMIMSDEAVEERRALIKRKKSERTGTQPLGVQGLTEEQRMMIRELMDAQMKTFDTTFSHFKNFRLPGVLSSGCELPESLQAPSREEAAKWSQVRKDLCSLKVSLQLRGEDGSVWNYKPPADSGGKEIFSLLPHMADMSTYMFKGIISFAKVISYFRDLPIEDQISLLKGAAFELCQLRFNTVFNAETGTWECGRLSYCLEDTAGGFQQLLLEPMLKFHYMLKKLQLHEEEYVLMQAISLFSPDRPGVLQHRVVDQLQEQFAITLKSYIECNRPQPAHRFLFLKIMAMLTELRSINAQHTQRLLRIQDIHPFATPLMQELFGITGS
protocol.text: ATG_PXR_TRANS: Attagene TRANS-FACTORIAL HepG2 Assay for human Pregnane X Receptor (PXR) (AID 2283008)
Inconclusive results are not listed. Activity calls are given as the source filed them. The calls were made as follows: active = hit-call score of the fitted dose curve at least 0.9, where 1 is the maximum; inconclusive = response in the unintended direction; inactive = score below 0.9.
Respond using exactly one of the listed classes: active, inactive

1) O=[N+]([O-])c1cc([N+](=O)[O-])c2ccccc2c1
active
2) O=[N+]([O-])C=Cc1ccccc1
active
3) CN1C[C@H](C(=O)N[C@]2(C)O[C@@]3(O)[C@@H]4CCCN4C(=O)[C@H](Cc4ccccc4)N3C2=O)C=C2c3cccc4[nH]cc(c34)C[C@H]21
active

Prompt: For this compound, state the assay outcome: `C[C@]12CCC(=O)C(O)=C1CC[C@@H]1[C@@H]2CC[C@]2(C)C(=O)CC[C@@H]12`
Response: inactive

Prompt: Also check CCOC(=O)C1OC1(C)c1ccccc1 (configuration not stated)
Response: inactive

Prompt: Moving on to the next compound: `O=C(NC(=O)c1c(F)cccc1F)Nc1ccc(Oc2ccc(C(F)(F)F)cc2Cl)cc1F`
Response: inactive

Prompt: Same question, `CN(C)CCC#N` this time
Response: inactive

Prompt: Try the compound `O=[N+]([O-])c1ccccc1Cl`
Response: inactive

Prompt: // same read-out, input: CC1OC(C)OC(C)O1 (configuration not stated)
Response: inactive

Prompt: Please give the result for `SCc1ccco1` too.
Response: inactive

---

Read-out: Matrix Metallopeptidase 1 (MMP1), MMP1 (gene 4312)
protocol.text: BSK_BE3C_MMP1: BioMAP Diversity Plus: BE3C Assay for Matrix Metallopeptidase 1 (MMP1) Biomarker Activity (AID 2283024)
condition.details: primary human bronchial epithelial cells; actives raise or lower the signal
Activity calls are given as the source filed them. Rule for the calls: active = hit-call score of the fitted dose curve at least 0.9, where 1 is the maximum; inactive = score below 0.9.
metric.name: AC50

1. Cc1ccc(OP(=O)(Oc2ccc(C)cc2)Oc2ccc(C)cc2)cc1 (tested in a mixture with another compound)
3.35 µM (active)
2. O=P1(NCCCl)OCCCN1CCCl (stereo not drawn)
inactive
3. CC(C)(C)C(O)C(Oc1ccc(-c2ccccc2)cc1)n1cncn1 (stereo not drawn)
inactive

---

Read-out: Vascular cell adhesion molecule 1 (VCAM1), VCAM1 (gene 7412)
protocol.text: BSK_hDFCGF_VCAM1: BioMAP Diversity Plus: hDFCGF Assay for Vascular cell adhesion molecule 1 (VCAM1) Biomarker Activity (AID 2283065)
condition.details: primary human foreskin fibroblasts; actives raise or lower the signal
Calls of active or inactive are those of the source. Rule for the calls: active = hit-call score of the fitted dose curve at least 0.9, where 1 is the maximum; inactive = score below 0.9.
A correct response names exactly one class from active, inactive

// below: answered compounds
1. O=c1[nH]c(Cl)c(Cl)cc1Cl
inactive
2. COc1ccc(CO)cc1
inactive
3. CC(C)(C)C(=O)CCl
active
4. C=CC(=O)OCC(CC)CCCC (stereo unspecified)
active
5. CC(C)(C)C(O)C(Oc1ccc(-c2ccccc2)cc1)n1cncn1 (stereo unspecified)
inactive
6. Clc1ccc(-c2ccccc2)cc1
inactive
7. O=c1c2ccccc2c(=O)c2c1cc(Cl)c1[nH]c3c([nH]c12)c(Cl)cc1c(=O)c2ccccc2c(=O)c13
active
8. CC(C)CCCCCCCOC(=O)c1ccccc1C(=O)OCCCCCCCC(C)C
inactive
9. CC1(C)[C@H](C(=O)O[C@H](C#N)c2cccc(Oc3ccccc3)c2)[C@@H]1C=C(Br)Br
inactive
10. CCCOC(=O)c1ccccc1C(=O)OCCC
inactive

Prompt: Would you mind telling me which call this test gave `O=S(=O)(c1ccccc1)c1ccccc1` ?
Response: inactive

Prompt: How about this compound: O=P1(NCCCl)OCCCN1CCCl (stereo unspecified)
Response: inactive

Prompt: Another compound: `C=CCN(CC=C)C(=O)C(Cl)Cl`
Response: inactive
